Test system: 3-epimerase
Test: Specificity of 3-epimerase for substrate
Format: biochemical, Thermogemmatispora carboxidivorans
Conditions: 0.04 U/ml 3-epimerase, 10 mM monosaccharide as substrate, pH 7.5, 60° C., 20 minutes
Assignment: determine reported Relative activity (%) for the given molecules.
Please report the result as a number followed by the unit.

# MOLECULE, TARGET_OF_ASSAY, TEST_VALUE
data = [
    ("O=C(CO)[C@@H](O)[C@H](O)[C@H](O)CO [Fructose, D-fructose]", "3-epimerase", "63.9%"),
]

Go through the list and state Relative activity (%) for each entry.
1. O=C(CO)[C@@H](O)[C@@H](O)[C@H](O)CO [D-tagatose]
2. O=C(CO)[C@H](O)[C@@H](O)[C@H](O)CO [Sorbose, D-sorbose]

Return:
1. 40.7%
2. 21%

Kindly note the recorded Relative activity (%) for O=C(CO)[C@H](O)[C@H](O)[C@H](O)CO [D-allulose, D-ribo-2-hexulose] , which is 100%
